TEST DESCRIPTION: self-splicing fitness, log relative to wild type (ln ratio); higher = more splicing; Tetrahymena group I intron in knt gene, E. coli kanamycin selection, DiMSum; sequences stand for … in CUCUCU…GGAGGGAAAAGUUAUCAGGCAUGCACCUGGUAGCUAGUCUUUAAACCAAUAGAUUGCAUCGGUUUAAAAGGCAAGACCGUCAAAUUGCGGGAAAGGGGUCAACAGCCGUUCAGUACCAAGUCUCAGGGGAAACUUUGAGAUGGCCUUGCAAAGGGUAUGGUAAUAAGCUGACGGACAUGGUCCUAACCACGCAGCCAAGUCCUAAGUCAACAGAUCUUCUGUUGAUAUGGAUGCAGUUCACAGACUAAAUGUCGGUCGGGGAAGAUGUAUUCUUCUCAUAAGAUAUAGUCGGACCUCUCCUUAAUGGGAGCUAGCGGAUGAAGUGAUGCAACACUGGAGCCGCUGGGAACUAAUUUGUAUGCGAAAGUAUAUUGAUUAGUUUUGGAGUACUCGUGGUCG;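 also: selection with 25 µg/mL kanamycin versus none on LB agar overnight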
SETTINGS: 30 °C
This section presents sequences with their documented self-splicing fitness (ln) values.
Keep the answer to the number alone.

As a guide, the following entries are already answered.
# input Look up self-splicing fitness (ln): `GCCCAGCAAUAUUACGUGAA`
# output -0.204

# input Look up self-splicing fitness (ln): `UGAAAGCAAUAUUACGGUCG`
# output 0.0681

# input Look up self-splicing fitness (ln): `UUUGAGCAAUAUUACGAAGG`
# output -3.13

# input Look up self-splicing fitness (ln): `UGGCAGCAAUAUUACGUCGG`
# output -0.425

---
# input Look up self-splicing fitness (ln): `UUGGAGCAAUAUUACGUCAU`
# output -3.84

# input Look up self-splicing fitness (ln): `CGGAAGCAAUAUUACGUAAA`
# output -2.94

# input Look up self-splicing fitness (ln): `AAGAAGCAAUAUUACGAAGU`
# output -2.48

# input Look up self-splicing fitness (ln): `GCUAAGCAAUAUUACGAACU`
# output -0.229

# input Look up self-splicing fitness (ln): `CGGCAGCAAUAUUACGUGCU`
# output -3

# input Look up self-splicing fitness (ln): `ACAGAGCAAUAUUACGAAUC`
# output -2.92

====

TEST DESCRIPTION: self-splicing fitness, log relative to wild type (ln ratio); higher = more splicing; Tetrahymena group I intron in knt gene, E. coli kanamycin selection, DiMSum; sequences stand for … in CUCUCU…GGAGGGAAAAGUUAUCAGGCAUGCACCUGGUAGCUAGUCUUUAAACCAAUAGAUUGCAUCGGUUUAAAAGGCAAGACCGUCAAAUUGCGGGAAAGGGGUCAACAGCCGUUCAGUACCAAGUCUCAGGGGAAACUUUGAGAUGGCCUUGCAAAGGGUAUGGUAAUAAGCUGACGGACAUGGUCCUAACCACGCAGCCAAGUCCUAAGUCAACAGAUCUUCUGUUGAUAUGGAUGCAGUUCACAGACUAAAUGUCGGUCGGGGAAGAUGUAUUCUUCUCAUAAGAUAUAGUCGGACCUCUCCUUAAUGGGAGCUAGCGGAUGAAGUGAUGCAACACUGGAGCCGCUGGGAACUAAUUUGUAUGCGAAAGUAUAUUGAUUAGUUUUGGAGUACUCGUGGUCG
SETTINGS: 30 °C
self-splicing fitness (ln) of -3 or higher: YES. Under -3: NO.

The examples below pair each entry with its known result.
# input Reported self-splicing fitness (ln) at or above -3? `GCGCAGCAAUAUUACGAAUA`
# output YES

# input Reported self-splicing fitness (ln) at or above -3? `GUGAAGCAAUAUUACGUACU`
# output YES

# input Reported self-splicing fitness (ln) at or above -3? `CGACAGCAAUAUUACGAAUA`
# output YES

# input Reported self-splicing fitness (ln) at or above -3? `UCACAGCAAUAUUACGGCUU`
# output NO

---
# input Reported self-splicing fitness (ln) at or above -3? `CGGCAGCAAUAUUACGGAGC`
# output NO

# input Reported self-splicing fitness (ln) at or above -3? `UAACAGCAAUAUUACGGGGU`
# output NO

# input Reported self-splicing fitness (ln) at or above -3? `AGUAAGCAAUAUUACGUCAA`
# output NO

# input Reported self-splicing fitness (ln) at or above -3? `GAUCAGCAAUAUUACGUUCU`
# output YES

# input Reported self-splicing fitness (ln) at or above -3? `GCUAAGCAAUAUUACGUCGG`
# output YES

# input Reported self-splicing fitness (ln) at or above -3? `AUCCAGCAAUAUUACGACGC`
# output YES

====

TEST DESCRIPTION: self-splicing fitness, log relative to wild type (ln ratio); higher = more splicing; Tetrahymena group I intron in knt gene, E. coli kanamycin selection, DiMSum; sequences stand for … in CUCUCU…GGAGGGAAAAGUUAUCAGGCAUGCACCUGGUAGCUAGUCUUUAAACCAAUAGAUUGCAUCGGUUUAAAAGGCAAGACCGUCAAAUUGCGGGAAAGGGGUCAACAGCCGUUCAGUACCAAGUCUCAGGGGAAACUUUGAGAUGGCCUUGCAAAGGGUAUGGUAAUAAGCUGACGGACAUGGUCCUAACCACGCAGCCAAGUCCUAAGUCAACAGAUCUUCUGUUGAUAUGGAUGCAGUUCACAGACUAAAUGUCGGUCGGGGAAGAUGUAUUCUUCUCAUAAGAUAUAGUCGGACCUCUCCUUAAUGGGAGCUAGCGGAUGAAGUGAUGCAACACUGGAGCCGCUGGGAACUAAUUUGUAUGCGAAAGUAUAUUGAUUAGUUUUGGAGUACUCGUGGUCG
SETTINGS: 37 °C
self-splicing fitness (ln) of -2 or higher: Satisfied. Under -2: Not satisfied.

The examples below pair each entry with its known result.
# input Reported self-splicing fitness (ln) at or above -2? `GAUGAGCAAUAUUACGGCAC`
# output Satisfied

# input Reported self-splicing fitness (ln) at or above -2? `GCACAGCAAUAUUACGGAGC`
# output Not satisfied

# input Reported self-splicing fitness (ln) at or above -2? `UAACAGCAAUAUUACGGGCC`
# output Not satisfied

---
# input Reported self-splicing fitness (ln) at or above -2? `CGUCAGCAAUAUUACGGUAU`
# output Not satisfied

# input Reported self-splicing fitness (ln) at or above -2? `AUGAAGCAAUAUUACGUCCC`
# output Satisfied

# input Reported self-splicing fitness (ln) at or above -2? `CGUGAGCAAUAUUACGAUCC`
# output Satisfied

====

TEST DESCRIPTION: self-splicing fitness, log relative to wild type (ln ratio); higher = more splicing; Tetrahymena group I intron in knt gene, E. coli kanamycin selection, DiMSum; sequences stand for … in CUCUCU…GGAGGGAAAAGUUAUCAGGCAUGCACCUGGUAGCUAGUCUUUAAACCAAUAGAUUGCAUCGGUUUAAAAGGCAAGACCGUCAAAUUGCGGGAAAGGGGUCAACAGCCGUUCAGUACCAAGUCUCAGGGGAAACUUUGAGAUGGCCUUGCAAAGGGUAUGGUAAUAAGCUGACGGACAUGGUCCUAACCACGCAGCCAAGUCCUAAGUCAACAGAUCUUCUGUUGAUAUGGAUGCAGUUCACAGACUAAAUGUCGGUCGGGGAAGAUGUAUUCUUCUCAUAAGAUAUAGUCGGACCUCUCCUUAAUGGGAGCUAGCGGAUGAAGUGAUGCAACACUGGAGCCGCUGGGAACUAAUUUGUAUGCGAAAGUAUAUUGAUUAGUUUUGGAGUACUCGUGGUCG
SETTINGS: 37 °C
self-splicing fitness (ln) of -2 or higher: 1 (yes). Under -2: 0 (no).

The examples below pair each entry with its known result.
# input Reported self-splicing fitness (ln) at or above -2? `ACCGAGCAAUAUUACGUAGU`
# output 0 (no)

# input Reported self-splicing fitness (ln) at or above -2? `CAUUAGCAAUAUUACGCAAU`
# output 1 (yes)

# input Reported self-splicing fitness (ln) at or above -2? `CUGGAGCAAUAUUACGCGGG`
# output 0 (no)

---
# input Reported self-splicing fitness (ln) at or above -2? `AGUAAGCAAUAUUACGUCUC`
# output 0 (no)

# input Reported self-splicing fitness (ln) at or above -2? `GUAGAGCAAUAUUACGACGU`
# output 1 (yes)

# input Reported self-splicing fitness (ln) at or above -2? `UUCAAGCAAUAUUACGAGGU`
# output 1 (yes)

====

This section presents sequences with their documented self-splicing fitness (ln) values.
TEST DESCRIPTION: self-splicing fitness, log relative to wild type (ln ratio); higher = more splicing; Tetrahymena group I intron in knt gene, E. coli kanamycin selection, DiMSum; sequences stand for … in CUCUCU…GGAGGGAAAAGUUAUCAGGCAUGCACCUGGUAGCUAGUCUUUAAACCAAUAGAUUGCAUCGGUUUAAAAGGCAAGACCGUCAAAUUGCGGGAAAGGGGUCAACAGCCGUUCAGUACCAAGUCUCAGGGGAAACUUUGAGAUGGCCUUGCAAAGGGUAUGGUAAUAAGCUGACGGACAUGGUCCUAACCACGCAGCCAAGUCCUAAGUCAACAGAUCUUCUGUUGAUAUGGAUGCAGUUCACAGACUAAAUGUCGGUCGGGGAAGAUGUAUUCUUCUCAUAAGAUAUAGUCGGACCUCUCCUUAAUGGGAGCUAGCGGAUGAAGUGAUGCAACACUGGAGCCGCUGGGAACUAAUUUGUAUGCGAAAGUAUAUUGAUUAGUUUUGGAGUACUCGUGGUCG
SETTINGS: 37 °C
Keep the answer to the number alone.

# input Look up self-splicing fitness (ln): `AAUGAGCAAUAUUACGGCUA`
# output -0.372

# input Look up self-splicing fitness (ln): `AUGUAGCAAUAUUACGGGUC`
# output -2.95

# input Look up self-splicing fitness (ln): `UAAAAGCAAUAUUACGGGAC`
# output -2.47

# input Look up self-splicing fitness (ln): `ACAUAGCAAUAUUACGUCUG`
# output -0.845

# input Look up self-splicing fitness (ln): `CUCAAGCAAUAUUACGGGAU`
# output -1.34

Moving on to another sequence below.
# input Look up self-splicing fitness (ln): `GCUAAGCAAUAUUACGGCUA`
# output -0.399
